METHOD NOTES: Brain to plasma AUC ratio in rat at 1.2 mg/kg, iv
Type: ADME, organism-based
Design: dose 1.2 mg/kg, route intravenous
STATED CONDITIONS: brain and plasma, read-out: Ratio AUC
ENDPOINT: Kp
Keep it simple and answer with nothing but the number.

Retrieve Kp measured for "FC(F)(F)c1ccnc(N2CC[C@H]3CNC[C@H]32)n1" and print it.
14.5

====

METHOD NOTES: Half life in rat at 1.2 mg/kg, iv
Type: ADME, organism-based
Set-up: dose 1.2 mg/kg, route intravenous
STATED CONDITIONS: in vivo
ENDPOINT: half-life (h)
Report the value in h with no unit label.

Retrieve half-life measured for "FC(F)(F)c1ccnc(N2CC[C@H]3CNC[C@H]32)n1" and print it.
1.1

====

STUDY TARGET: 5-hydroxytryptamine receptor 2C (Homo sapiens, UniProt P28335)
Sequence (P28335 whole entry): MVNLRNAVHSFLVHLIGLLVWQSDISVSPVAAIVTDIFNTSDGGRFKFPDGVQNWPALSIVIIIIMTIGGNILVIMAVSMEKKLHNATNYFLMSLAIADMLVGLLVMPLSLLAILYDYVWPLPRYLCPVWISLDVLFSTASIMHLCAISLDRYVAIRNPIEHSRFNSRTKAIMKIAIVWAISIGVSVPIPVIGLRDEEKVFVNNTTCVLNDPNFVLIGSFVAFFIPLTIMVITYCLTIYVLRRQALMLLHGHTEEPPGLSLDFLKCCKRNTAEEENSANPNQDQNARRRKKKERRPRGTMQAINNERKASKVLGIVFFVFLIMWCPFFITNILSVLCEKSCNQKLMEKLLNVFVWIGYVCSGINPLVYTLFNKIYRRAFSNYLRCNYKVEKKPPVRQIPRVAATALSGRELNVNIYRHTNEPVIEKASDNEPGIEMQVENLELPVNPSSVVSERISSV
METHOD NOTES: Induction of 5HT2C receptor mediated increase in intracellular calcium concentration in HEK293 cells
Reported EC50 values follow for various compounds

Fc1ccc(F)c(-c2ccnc(N3CC[C@H]4CNC[C@H]43)n2)c1 = > 1 µM

Retrieve EC50 measured for "Clc1ccc(Cl)c(-c2ccnc(N3C[C@@H]4CCN[C@@H]4C3)n2)c1" and print it.
> 20 µM

Retrieve EC50 measured for "Fc1ccc(F)c(-c2ccnc(N3C[C@@H]4CCN[C@@H]4C3)n2)c1" and print it.
> 20 µM

Retrieve EC50 measured for "FC(F)(F)c1ccnc(N2C[C@@H]3CCN[C@@H]3C2)n1" and print it.
> 20 µM
